ASSAY_EXPLANATION: in vitro
STATED_CONDITIONS: PAMPA, pH 5
RECORDED_ENDPOINT: Papp (×10⁻⁶ cm/s)

1. COc1ccc(N2CCN(CCCNC(=O)Cn3c(=O)c4cccn4c4c(C)ccnc43)CC2)cc1 [Compound 1{3}] = 27

---

EXPERIMENTAL_SYSTEM: DOR (Homo sapiens, UniProt P41143)
Sequence (P41143 whole entry): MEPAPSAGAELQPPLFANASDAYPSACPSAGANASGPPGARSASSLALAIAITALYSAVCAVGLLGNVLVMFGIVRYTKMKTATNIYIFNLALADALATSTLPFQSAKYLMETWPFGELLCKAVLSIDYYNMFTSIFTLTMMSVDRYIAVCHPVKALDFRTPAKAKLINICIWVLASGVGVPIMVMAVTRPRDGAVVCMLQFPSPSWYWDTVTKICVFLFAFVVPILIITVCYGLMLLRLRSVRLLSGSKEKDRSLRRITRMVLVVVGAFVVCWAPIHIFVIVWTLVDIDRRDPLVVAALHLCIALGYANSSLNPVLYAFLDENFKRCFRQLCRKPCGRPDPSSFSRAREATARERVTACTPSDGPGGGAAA
ASSAY_EXPLANATION: High content imaging β-arrestin translocation assay, DOR antagonist (DOR HCS)
Assay type: cell-based
pIC50: −log10 of the molar value.
RECORDED_ENDPOINT: pIC50

1. COc1ccc(N2CCN(CCCNC(=O)Cn3c(=O)c4cccn4c4ccccc43)CC2)cc1 [Compound 1{1}] = < 4.49
